procedure.details: Cmax in dog at 0.5 mg/kg, po
Assay type: ADME, organism-based, Canis lupus familiaris
Design: dose 0.5 mg/kg, route oral
experimental.parameters: in vivo

# molecule, u, Cmax
measured = [
    ("C[C@@H]1CN(C(=O)[C@@H]2CN(C(C)(C)C)C[C@H]2c2ccc(F)cc2F)C[C@H](C)[C@@]1(O)c1ccccc1.Cl", "ng/mL", 0.9),
]

====

procedure.details: Tmax in dog at 0.5 mg/kg, po
Type: ADME, organism-based, Canis lupus familiaris
Design: dose 0.5 mg/kg, route oral
experimental.parameters: in vivo
result.type: Tmax (h)

# molecule, numeric.readout
records = [
    ("C[C@@H]1CN(C(=O)[C@@H]2CN(C(C)(C)C)C[C@H]2c2ccc(F)cc2F)C[C@H](C)[C@@]1(O)c1ccccc1.Cl", 1),
]
